Biological target: Cytochrome P450 3A4 (Homo sapiens)
Assay: qHTS Assay for Activators of Cytochrome P450 3A4 (AID 885); further: nearly all actives have a fitted effect of over 65% in size
Conditions: recombinant CYP3A4, Luciferin-PPXE luminescence, 60 min; series mostly up to 57.1 µM
Active and inactive are the calls of the source. The call rests on the fitted dose curve; in most records, active means well fitted activation curve with a large enough effect; inconclusive means small, poorly fitted or top-dose-only effect; inactive means no such curve, though single readings can be large or run the other way.
Reply using exactly one outcome from TRUE for active, FALSE for inactive

Look up the recorded call for COc1ccc(C(=O)N2CCC3(CC2)CN(c2ccncc2)C3)cc1 in this test. FALSE

Look up the recorded call for Cc1ccccc1-c1nccc(NCCN2CCOCC2)n1 in this test. FALSE

Look up the recorded call for COc1ccc(-c2nc3cnc(N4CCNCC4)nc3n(CCc3ccccc3)c2=O)cc1 in this test. FALSE

Look up the recorded call for COc1ccc(CNc2cc(-c3ccccc3Cl)ncn2)c(OC)c1 in this test. FALSE

Look up the recorded call for O=C(c1cc(C(F)(F)F)cc(C(F)(F)F)c1)N1CCC[C@@]2(CCN(Cc3nccs3)C2)C1 in this test. FALSE

Look up the recorded call for Clc1ccccc1-c1ccc2ncnc(N3CCNCC3)c2c1 in this test. FALSE

Look up the recorded call for Cc1noc(C)c1-c1cncnc1N(C)Cc1ccco1 in this test. FALSE

Look up the recorded call for CN(Cc1ccco1)c1ncncc1-c1ccccc1Cl in this test. FALSE

Look up the recorded call for FC(F)(F)c1cc(CN2CCCC3(CCNCC3)C2)cc(C(F)(F)F)c1 in this test. FALSE

----------
Experiment: qHTS to identify inhibitors of the type 1 interferon - major histocompatibility complex class I in skeletal muscle: primary screen against the NCATS Mechanism Interrogation Plate v5.0 (MIPE) Libary (AID 1347411); further: nearly all actives have a fitted effect of over 65% in size
Details: iHSKM cells + IFN-b, HiBiT-tagged MHC-I luminescence, 24 h; series mostly up to 45.8 µM
Inconclusive results are not listed. Activity calls are given as the source filed them. The call rests on the fitted dose curve; in most records, active means well fitted inhibition curve with a large enough effect; inconclusive means small, poorly fitted or top-dose-only effect; inactive means no such curve, though single readings can be large or run the other way.
Reply using exactly one outcome from active, inactive

1. c1ccc(CNCc2ccc(CN3CCCNCCNCCCNCC3)cc2)nc1	inactive
2. COc1cc2c3c(n(CCCN4CCOCC4)c(=O)c2cc1OC)-c1cc2c(cc1C3=O)OCO2	inactive
3. Cc1nc2cccc(N)c2c(=O)n1C1CCC(=O)NC1=O (stereo unspecified)	inactive
4. CCN(CC)CCNc1ccc(C)c2sc3ccccc3c(=O)c12	active
5. O=c1ncccn1[C@@H]1O[C@H](CO)[C@@H](O)[C@H]1O	inactive

# input for lookup
Look up the recorded call for CN1C(N)=N[C@](C)(c2cc(NC(=O)c3ccc(F)cn3)ccc2F)CS1(=O)=O in this test. inactive

----------
Experiment: qHTS for ATAD5 Antagonist screened against the NCATS CANVASS Library (AID 1347370); further: nearly all actives have a fitted effect of over 65% in size
Conditions: HEK293T-ATAD5-luc, 5-FUrd stimulated, luminescence, 16 h; series mostly up to 46.1 µM
Inconclusive results are not listed. Active and inactive are the calls of the source. The call rests on the fitted dose curve; in most records, active means well fitted inhibition curve with a large enough effect; inconclusive means small, poorly fitted or top-dose-only effect; inactive means no such curve, though single readings can be large or run the other way.
Reply using exactly one outcome from 1 (yes) = active, 0 (no) = inactive

Answered cases to consult:
1) CC(C)=CCC[C@]12c3cc4c(cc3CC[C@@]1(C)[C@H](C)CC[C@@H]2O)[nH]c1ccccc14	0 (no)
2) COc1cc2c(cc1OC)[C@@H](c1ccc3c(c1)OCO3)C(C)[C@@H](C)C2=O (stereo not given in full)	1 (yes)
3) COc1cc2c(cc1OC)[C@@H](c1ccc3c(c1)OCO3)C(C)C(C)C2=O (stereo not given in full)	1 (yes)
4) C/C(=C\[C@@H](C)CC/C=C/CC/C=C/C(=O)O)[C@@H](O)[C@H](C)C(=O)CCCC1CC(=O)NC(=O)C1	0 (no)

# input for lookup
Look up the recorded call for C/C1=C/[C@@H](C)[C@H](O)[C@@H](O)/C=C/CC/C=C/C(=O)O[C@@H]1[C@H](C)C(=O)CCCC1CC(=O)NC(=O)C1 in this test. 0 (no)
